Below is a list of entries, each paired with its recorded efficacy in % value.
Test system: larvae of the mustard beetle (Phaedon cochleariae)
Assay: Phaedon cochleariae spray test (PHAECO)
Type: in vivo
Conditions: application rate 500 g/ha; Chinese cabbage leaf discs; after 7 days
Method: H. Phaedon cochleariae-spray Test (PHAECO) Solvents: 78.0 parts by weight of acetone • 1.5 parts by weight of dimethylformamide Emulsifier: alkylaryl polyglycol ether To produce a suitable preparation of active compound, 1 part by weight of active compound is dissolved using the stated parts by weight of solvent and made up with water comprising an emulsifier concentration of 1000 ppm until the desired concentration is reached. […] After 7 days, the efficacy in % is determined. […]
# value in %; strip the unit string

Examples with answers:
molecule=Cn1nc(C(F)(F)C(F)(F)F)c(C(F)(F)F)c1-n1cc(-c2ccc(Cl)c(C(=O)Nc3ccccn3)c2)cn1 readoutname="efficacy in %" experimentalresult=100
molecule="CC#CC(C)NC(=O)c1cc(-c2cnn(-c3c(C(F)(F)F)c(C(F)(F)C(F)(F)F)nn3C)c2)ccc1Cl (centres unmarked)" readoutname="efficacy in %" experimentalresult=100
molecule=Cn1nc(C(F)(F)C(F)(F)F)c(C(F)(F)F)c1-n1cc(-c2cccc(C(=O)NC3(C#N)CC3)n2)cn1 readoutname="efficacy in %" experimentalresult=100
molecule=Cn1nc(C(F)(F)F)c(CO)c1-n1cc(-c2ccc(Cl)c(C(=O)NC3CC3)c2)cn1 readoutname="efficacy in %" experimentalresult=83
molecule=Cn1nc(C(F)(F)C(F)(F)F)c(C(F)(F)F)c1-n1cc(-c2cc(C(=O)NC3CC3)c(F)c(S(N)(=O)=O)c2)cn1 readoutname="efficacy in %" experimentalresult=100

Provide efficacy in %, recorded with larvae of the mustard beetle (Phaedon cochleariae), of `Cn1nc(C(F)(F)C(F)(F)F)c(C(F)(F)F)c1-n1cc(-c2ccc(Cl)c(C(=O)NC3CS(=O)(=O)C3)c2)cn1`
100

Provide efficacy in %, recorded with larvae of the mustard beetle (Phaedon cochleariae), of `Cn1ccc(NC(=O)c2cc(-c3cnn(-c4c(C(F)(F)F)c(C(F)(F)C(F)(F)F)nn4C)c3)ccc2Cl)n1`
100

Provide efficacy in %, recorded with larvae of the mustard beetle (Phaedon cochleariae), of `Cn1nc(C(F)(F)C(F)(F)F)c(C(F)(F)F)c1-n1cc(-c2cc(C(=O)NC3CC3)cc(F)c2F)cn1`
100

Provide efficacy in %, recorded with larvae of the mustard beetle (Phaedon cochleariae), of COCC(C)NC(=O)c1cc(-c2cnn(-c3c(C(F)(F)F)c(C(F)(F)C(F)(F)F)nn3C)c2)ccc1Cl (centres unmarked)
100

Provide efficacy in %, recorded with larvae of the mustard beetle (Phaedon cochleariae), of `Cn1nc(C(F)(F)C(F)(F)F)c(C(F)(F)F)c1-n1cc(-c2ccc(Cl)c(C(=O)NCc3cc[nH]n3)c2)cn1`
100

Provide efficacy in %, recorded with larvae of the mustard beetle (Phaedon cochleariae), of `Cn1nc(C(F)(F)C(F)(F)F)c(C(F)(F)F)c1-n1cc(-c2cc(Cl)cc(C(=O)NC3CC3)c2)cn1`
100

Provide efficacy in %, recorded with larvae of the mustard beetle (Phaedon cochleariae), of `Cn1nc(C(F)(F)C(F)(F)F)c(C(F)(F)F)c1-n1cc(-c2ccc(Cl)c(C(=O)Nc3ccccc3)c2)cn1`
100

Provide efficacy in %, recorded with larvae of the mustard beetle (Phaedon cochleariae), of `Cn1nc(C(F)(F)C(F)(F)F)c(C(F)(F)F)c1-n1cc(-c2ccc(Cl)c(C(=O)Nc3cc[nH]n3)c2)cn1`
100

Provide efficacy in %, recorded with larvae of the mustard beetle (Phaedon cochleariae), of `Cn1nc(C(F)(F)C(F)(F)F)c(C(F)(F)F)c1-n1cc(-c2ccc(F)c(C(=O)NC3(C#N)CC3)c2F)cn1`
100
